assay: Tested for binding affinity towards Opioid receptor mu 1 in rat and guinea pig brain membrane binding assays
Peptide text beside a SMILES is read from it. * marks the point of attachment. X1 = Cc1cc(O)cc(C)c1C[C@H](C)C(=O)*
MEASUREMENT_TYPE: pKi
# reply with the number alone; pKi is -log10 of concentration in mol/L

Lookup: Given the compound Cc1cc(O)cc(C)c1C[C@H](C)C(=O)N[C@@H](C)C(=O)NCC(=O)N[C@@H](Cc1ccccc1)C(=O)N[C@@H](CC(C)C)C(N)=O (X1-AGFL-NH2) , write its reported pKi.
Found: 6.72

* * *

assay: Tested for binding affinity towards Opioid receptor delta 1 in rat and guinea pig brain membrane binding assays
Peptide text beside a SMILES is read from it. * marks the point of attachment. X1 = Cc1cc(O)cc(C)c1C[C@H](C)C(=O)*
MEASUREMENT_TYPE: Ki (nM)
Your answer should be a plain number; it is taken to be in nM.

Lookup: Given the compound Cc1cc(O)cc(C)c1C[C@H](C)C(=O)N[C@@H](C)C(=O)NCC(=O)N[C@@H](Cc1ccccc1)C(=O)N[C@@H](CC(C)C)C(N)=O (X1-AGFL-NH2) , write its reported Ki.
Found: 12
